All figures here come from PubChem BioAssay AID2060599.

# System: 817829-284-R-J1-PDC complex spheroids, viability
# protocol_text: Anticancer human tumor 817829-284-R-J1-PDC patient-derived colon adenocarcinoma cell line growth inhibition [CLK]; active means viability on the fitted dose curve at most 10% of control; inactive means the rest
# test_parameters: second compound 0.0316 µM; first compound 0.316 µM
Answer with one of the outcomes given here: 1 (active), 0 (inactive)

Check out these entries, answers already filled in.
{"molecule": "O=c1[nH]cc(F)c(=O)[nH]1 + CNC(=O)c1ccc(Nc2nc(OC3CCCC3)c3c(-c4ccc5nc(C)oc5c4)c[nH]c3n2)c(OC)c1", "subject_of_test": "817829-284-R-J1-PDC complex spheroids, viability", "discrete_label": 0}
{"molecule": "CC1COCCN1c1cc(C2(S(C)(=N)=O)CC2)nc(-c2ccnc3[nH]ccc23)n1 (stereo not given) + CN1CCN(c2cc(C(=O)Nc3cc4cc(-c5cnn(C)c5)ccc4cn3)ccn2)CC1", "subject_of_test": "817829-284-R-J1-PDC complex spheroids, viability", "discrete_label": 0}
{"molecule": "O=C(c1cc(Cc2n[nH]c(=O)c3ccccc23)ccc1F)N1CCN(C(=O)C2CC2)CC1 + CNC(=O)c1ccc(Nc2nc(OC3CCCC3)c3c(-c4ccc5nc(C)oc5c4)c[nH]c3n2)c(OC)c1", "subject_of_test": "817829-284-R-J1-PDC complex spheroids, viability", "discrete_label": 0}
{"molecule": "CCCS(=O)(=O)Nc1ccc(F)c(C(=O)c2c[nH]c3ncc(-c4ccc(Cl)cc4)cc23)c1F + CNC(=O)c1ccc(Nc2nc(OC3CCCC3)c3c(-c4ccc5nc(C)oc5c4)c[nH]c3n2)c(OC)c1", "subject_of_test": "817829-284-R-J1-PDC complex spheroids, viability", "discrete_label": 0}

As a next step, examine the molecule that follows.
Just curious, what result did COC1C=CCC(C)C(C)S(=O)(=O)NC(=O)c2ccc3c(c2)N(CC2CCC21)CC1(CCCc2cc(Cl)ccc21)CO3 (stereo not given) + CNC(=O)c1ccc(Nc2nc(OC3CCCC3)c3c(-c4ccc5nc(C)oc5c4)c[nH]c3n2)c(OC)c1 get here?
0

---

# Test system: 817829-284-R-J1-PDC complex spheroids, viability
# protocol_text: Anticancer human tumor 817829-284-R-J1-PDC cell line growth inhibition [CLK];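 further: spheroids exposed to the agents for seven days before readout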
# test_parameters: curve of first compound; second compound 3.16 µM
// IC50 lookup, one value per entry

{"compound": "C=C(F)C(=O)N1CCN(c2nc(OCC3CCCN3C)nc3c2CCN(c2cccc4cccc(Cl)c24)C3)CC1CC#N (stereo not given) + CN1CCN(c2cc(C(=O)Nc3cc4cc(-c5cnn(C)c5)ccc4cn3)ccn2)CC1", "subject_of_test": "817829-284-R-J1-PDC complex spheroids, viability", "readout": "IC50", "meas_value": "< 31.6 nM"}
{"compound": "COc1ccc([C@@H](O)c2cc(-c3ncnc4cc(N5CCOCC5)ccc34)c(F)cc2Cl)nn1 + CN1CCN(c2cc(C(=O)Nc3cc4cc(-c5cnn(C)c5)ccc4cn3)ccn2)CC1", "subject_of_test": "817829-284-R-J1-PDC complex spheroids, viability", "readout": "IC50", "meas_value": "< 31.6 nM"}
{"compound": "C#Cc1c(F)ccc2cc(O)cc(-c3ncc4c(N5CC6CCC(C5)N6)nc(OCC56CCCN5CC(F)C6)nc4c3F)c12 (stereo not given) + CNC(=O)c1ccc(Nc2nc(OC3CCCC3)c3c(-c4ccc5nc(C)oc5c4)c[nH]c3n2)c(OC)c1", "subject_of_test": "817829-284-R-J1-PDC complex spheroids, viability", "readout": "IC50", "meas_value": "< 31.6 nM"}
{"compound": "O=C(c1cc(Cc2n[nH]c(=O)c3ccccc23)ccc1F)N1CCN(C(=O)C2CC2)CC1 + CNC(=O)c1ccc(Nc2nc(OC3CCCC3)c3c(-c4ccc5nc(C)oc5c4)c[nH]c3n2)c(OC)c1", "subject_of_test": "817829-284-R-J1-PDC complex spheroids, viability", "readout": "IC50", "meas_value": "< 31.6 nM"}
{"compound": "Nc1ccn(C2OC(CO)C(O)C2(F)F)c(=O)n1 (stereo not given) + CNC(=O)c1ccc(Nc2nc(OC3CCCC3)c3c(-c4ccc5nc(C)oc5c4)c[nH]c3n2)c(OC)c1", "subject_of_test": "817829-284-R-J1-PDC complex spheroids, viability", "readout": "IC50", "meas_value": "< 31.6 nM"}
{"compound": "CC1(C)CCC(CN2CCN(c3ccc(C(=O)NS(=O)(=O)c4ccc(NCC5CCOCC5)c([N+](=O)[O-])c4)c(Oc4cnc5[nH]ccc5c4)c3)CC2)=C(c2ccc(Cl)cc2)C1 + CN1CCN(c2cc(C(=O)Nc3cc4cc(-c5cnn(C)c5)ccc4cn3)ccn2)CC1", "subject_of_test": "817829-284-R-J1-PDC complex spheroids, viability", "readout": "IC50", "meas_value": "< 31.6 nM"}
{"compound": "Cn1ncnc1[C@H]1c2n[nH]c(=O)c3cc(F)cc(c23)N[C@@H]1c1ccc(F)cc1 + CNC(=O)c1ccc(Nc2nc(OC3CCCC3)c3c(-c4ccc5nc(C)oc5c4)c[nH]c3n2)c(OC)c1", "subject_of_test": "817829-284-R-J1-PDC complex spheroids, viability", "readout": "IC50", "meas_value": "< 0.316 nM"}
{"compound": "CC(CO)NC(=O)c1cc(-c2ccc(Cl)cc2)nn(-c2cnn(C)c2)c1=O (stereo not given) + CN1CCN(c2cc(C(=O)Nc3cc4cc(-c5cnn(C)c5)ccc4cn3)ccn2)CC1", "subject_of_test": "817829-284-R-J1-PDC complex spheroids, viability", "readout": "IC50", "meas_value": "< 31.6 nM"}

Test system 817829-284-R-J1-PDC complex spheroids, viability; read-out IC50; what value for C=C(F)C(=O)N1CCN(c2nc(OCC3CCCN3C)nc3c2CCN(c2cccc4cccc(Cl)c24)C3)CC1CC#N (stereo not given) + CNC(=O)c1ccc(Nc2nc(OC3CCCC3)c3c(-c4ccc5nc(C)oc5c4)c[nH]c3n2)c(OC)c1 ?
< 31.6 nM

Another: CC(C)CC(NC(=O)C(Cc1ccccc1)NC(=O)c1cnccn1)B(O)O (stereo not given) + CN1CCN(c2cc(C(=O)Nc3cc4cc(-c5cnn(C)c5)ccc4cn3)ccn2)CC1
< 0.949 nM

Continue with COc1c(OCCCN2CCOCC2)ccc2c3n(c(=NC(=O)c4cnc(N)nc4)nc12)CCN3 + CNC(=O)c1ccc(Nc2nc(OC3CCCC3)c3c(-c4ccc5nc(C)oc5c4)c[nH]c3n2)c(OC)c1
< 3.16 nM

For C=CC(=O)N1CCN(c2nc(=O)n(-c3c(C)ccnc3C(C)C)c3nc(-c4c(O)cccc4F)c(F)cc23)C(C)C1 (stereo not given) + CNC(=O)c1ccc(Nc2nc(OC3CCCC3)c3c(-c4ccc5nc(C)oc5c4)c[nH]c3n2)c(OC)c1 then?
< 31.6 nM

And the next one, Nc1ccccc1NC(=O)c1ccc(CNC(=O)OCc2cccnc2)cc1 + CN1CCN(c2cc(C(=O)Nc3cc4cc(-c5cnn(C)c5)ccc4cn3)ccn2)CC1 ?
< 31.6 nM

Next compound up: O=c1[nH]cc(F)c(=O)[nH]1 + CN1CCN(c2cc(C(=O)Nc3cc4cc(-c5cnn(C)c5)ccc4cn3)ccn2)CC1
< 31.6 nM

Consider next the compound Nc1ccn(C2OC(CO)C(O)C2(F)F)c(=O)n1 (stereo not given) + CN1CCN(c2cc(C(=O)Nc3cc4cc(-c5cnn(C)c5)ccc4cn3)ccn2)CC1 in the same way.
< 31.6 nM

What do we get for CCCS(=O)(=O)Nc1ccc(F)c(C(=O)c2c[nH]c3ncc(-c4ccc(Cl)cc4)cc23)c1F + CNC(=O)c1ccc(Nc2nc(OC3CCCC3)c3c(-c4ccc5nc(C)oc5c4)c[nH]c3n2)c(OC)c1 ?
< 31.6 nM

Try this compound too: COC1C=CCC(C)C(C)S(=O)(=O)NC(=O)c2ccc3c(c2)N(CC2CCC21)CC1(CCCc2cc(Cl)ccc21)CO3 (stereo not given) + CNC(=O)c1ccc(Nc2nc(OC3CCCC3)c3c(-c4ccc5nc(C)oc5c4)c[nH]c3n2)c(OC)c1
< 31.6 nM

What do you have for Cn1ncnc1[C@H]1c2n[nH]c(=O)c3cc(F)cc(c23)N[C@@H]1c1ccc(F)cc1 + CN1CCN(c2cc(C(=O)Nc3cc4cc(-c5cnn(C)c5)ccc4cn3)ccn2)CC1 ?
< 0.316 nM

CCc1c2c(nc3ccc(O)cc13)-c1cc3c(c(=O)n1C2)COC(=O)[C@]3(O)CC + CN1CCN(c2cc(C(=O)Nc3cc4cc(-c5cnn(C)c5)ccc4cn3)ccn2)CC1 , same question.
< 3.16 nM

Subsequent entry: COc1c(OCCCN2CCOCC2)ccc2c3n(c(=NC(=O)c4cnc(N)nc4)nc12)CCN3 + CN1CCN(c2cc(C(=O)Nc3cc4cc(-c5cnn(C)c5)ccc4cn3)ccn2)CC1
< 3.16 nM
